All figures here come from ChEMBL document CHEMBL1201862.

- Tested on: INS1
- assaySummary: INS-1E survival protection against cytokine death – cell-based, luminescence, retest, dose response (AID 449756);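 note: cell death triggered by IL-1 beta plus TNF-alpha plus IFN-gamma mixture; protective hits raise ATP signal compared with cytokine alone wells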
- Assay type: functional
- conditionSummary: Rattus norvegicus
Activity calls are given as the source filed them. Cut-off read from the data, not from the text of the source: actives have a measured AC50 and inactives only a lower limit.
Each record here notes measured AC50.

input: Short answer please: AC50, INS1, entry "Cc1cc(C(=O)N/N=C/c2cc(Br)cc(Br)c2OC(=O)c2cccc(F)c2)[nH]n1"
output: 2.33 µM (active)

input: Could you share what AC50 was measured for "O=C(N/N=C(\c1ccccc1)c1ccccn1)c1ccccc1Cl" , tested on INS1?
output: 1.27 µM (active)

input: Please provide the recorded AC50 for "Cc1ccc2oc(-c3ccc(NC(=O)c4cccnc4)cc3)nc2c1" , tested on INS1.
output: 7.77 µM (active)

input: // lookup AC50 | system=INS1 | key= "CCOc1ccccc1NC(=O)c1nc(S(=O)(=O)Cc2cccc(C)c2)ncc1Cl"
output: 5.15 µM (active)
